# TARGET OF ASSAY: glucosylceramide synthase (GCS) (Mus musculus, UniProt O88693)
# Construct: IC50 values for GCS activity were measured using living cells; endogenous in cells
# Sequence (O88693 whole entry): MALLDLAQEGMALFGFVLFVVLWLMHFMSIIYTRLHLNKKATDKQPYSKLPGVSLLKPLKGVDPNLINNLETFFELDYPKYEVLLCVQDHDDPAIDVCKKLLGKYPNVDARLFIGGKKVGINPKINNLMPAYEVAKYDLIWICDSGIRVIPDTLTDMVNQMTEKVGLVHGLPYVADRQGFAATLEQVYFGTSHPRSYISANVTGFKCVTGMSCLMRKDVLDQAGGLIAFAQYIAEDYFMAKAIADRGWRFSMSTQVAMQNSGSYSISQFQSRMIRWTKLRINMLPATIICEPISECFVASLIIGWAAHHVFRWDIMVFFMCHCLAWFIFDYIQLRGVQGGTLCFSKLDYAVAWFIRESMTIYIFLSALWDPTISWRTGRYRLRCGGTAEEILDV
# PROTOCOL DESCRIPTION: GCS activity in living macrophage  cells (C6-NBD lipid, TLC readout)
# Assay type: cell-based
# REPORTED CONDITIONS: D-gluco configuration series, Example 3; read-out: GCS [nM] (IC50)
READOUT LABEL: IC50 (nM)

Cc1ccccc1-c1ccc(COCCCCCN2C[C@H](O)[C@@H](O)[C@H](O)[C@H]2CO)cc1; 25
C[C@@H](OCCCCCN1C[C@H](O)[C@@H](O)[C@H](O)[C@H]1CO)c1ccc(-c2ccccc2)cc1; 40
C[C@H](OCCCCCN1C[C@H](O)[C@@H](O)[C@H](O)[C@H]1CO)c1ccc(-c2ccccc2)cc1; 50

P. N#Cc1cccc(-c2ccc(COCCCCCN3C[C@H](O)[C@@H](O)[C@H](O)[C@H]3CO)cc2)c1
Q. OC[C@@H]1[C@@H](O)[C@H](O)[C@@H](O)CN1CCCCCOCc1ccc(-c2ccncc2)cc1
Prompt: Sorting ascending by IC50, which comes first: P or Q ? Bench note: the answer is the label of the chosen record.
Completion: P

----------
# TARGET OF ASSAY: glucosylceramide synthase (GCS) (Mus musculus)
# Construct: IC50 values for GCS activity were measured using living cells; endogenous in cells
# PROTOCOL DESCRIPTION: GCS activity in living macrophage  cells (C6-NBD lipid, TLC readout)
# Type: cell-based
# REPORTED CONDITIONS: L-ido configuration series, Example 4; read-out: GCS [nM] (IC50)
READOUT LABEL: IC50 (nM)

C[C@@H](OCCCCCN1C[C@H](O)[C@@H](O)[C@H](O)[C@@H]1CO)c1ccc(-c2ccccc2)cc1; 40
C[C@H](OCCCCCN1C[C@H](O)[C@@H](O)[C@H](O)[C@@H]1CO)c1ccc(-c2ccccc2)cc1; 30

----------
# TARGET OF ASSAY: GBA2 (Homo sapiens, UniProt Q9HCG7)
# Construct: measured using a membrane fraction obtained from Gaucher spleen; from tissue; host or cells: membrane fraction of Gaucher spleen, pre-treated with conduritol B-epoxide
# Sequence (Q9HCG7 1-927): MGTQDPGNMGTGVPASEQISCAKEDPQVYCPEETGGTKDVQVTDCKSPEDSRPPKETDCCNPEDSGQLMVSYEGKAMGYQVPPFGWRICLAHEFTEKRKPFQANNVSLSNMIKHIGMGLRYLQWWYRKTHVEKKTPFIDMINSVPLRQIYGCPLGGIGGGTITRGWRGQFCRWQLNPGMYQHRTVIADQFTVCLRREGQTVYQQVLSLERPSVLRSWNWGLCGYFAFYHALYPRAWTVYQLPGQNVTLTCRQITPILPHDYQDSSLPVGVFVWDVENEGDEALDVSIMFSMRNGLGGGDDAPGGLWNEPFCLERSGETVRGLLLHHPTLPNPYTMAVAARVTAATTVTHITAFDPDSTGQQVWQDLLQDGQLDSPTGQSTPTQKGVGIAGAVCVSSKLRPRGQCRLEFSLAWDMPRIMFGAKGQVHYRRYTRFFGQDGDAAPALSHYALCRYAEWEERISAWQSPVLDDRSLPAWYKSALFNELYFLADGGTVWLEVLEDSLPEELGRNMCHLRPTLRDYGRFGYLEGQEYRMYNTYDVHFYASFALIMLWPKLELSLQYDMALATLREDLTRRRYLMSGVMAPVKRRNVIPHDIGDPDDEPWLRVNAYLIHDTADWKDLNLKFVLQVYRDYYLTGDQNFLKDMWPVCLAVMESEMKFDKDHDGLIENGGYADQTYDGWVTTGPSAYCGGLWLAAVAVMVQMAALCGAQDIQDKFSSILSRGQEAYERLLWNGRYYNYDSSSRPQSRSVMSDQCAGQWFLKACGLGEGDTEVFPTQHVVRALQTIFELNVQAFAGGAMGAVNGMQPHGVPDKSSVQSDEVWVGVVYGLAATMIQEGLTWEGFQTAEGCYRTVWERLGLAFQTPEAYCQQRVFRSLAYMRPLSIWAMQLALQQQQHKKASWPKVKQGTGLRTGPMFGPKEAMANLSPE
# PROTOCOL DESCRIPTION: GBA2 activity, membrane fraction from Gaucher spleen, 4-MU-β-glucoside substrate;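 also: Read-out is fluorimetric quantification of released 4-MU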
# Format: biochemical
# REPORTED CONDITIONS: L-ido configuration series, Example 4
READOUT LABEL: IC50 (nM)

Worked examples, 3 molecules total:
OC[C@H]1[C@@H](O)[C@H](O)[C@@H](O)CN1CCCCCOCc1ccc(-c2ccccc2)c(F)c1; 0.6
OC[C@H]1[C@@H](O)[C@H](O)[C@@H](O)CN1CCCCCOCc1ccc(-c2ccccc2)c(C(F)(F)F)c1; 0.1
C[C@@H](OCCCCCN1C[C@H](O)[C@@H](O)[C@H](O)[C@@H]1CO)c1ccc(-c2ccccc2)cc1; 1

a. OC[C@H]1[C@@H](O)[C@H](O)[C@@H](O)CN1CC(F)(F)CCCOCc1ccc(-c2ccccc2)cc1
b. OC[C@H]1[C@@H](O)[C@H](O)[C@@H](O)CN1CCCCCOCc1ccccc1-c1ccccc1
Prompt: Short answer wanted: higher IC50, a or b ? Bench note: the answer is the label of the chosen record.
Completion: b

A. C[C@H](OCCCCCN1C[C@H](O)[C@@H](O)[C@H](O)[C@@H]1CO)c1ccc(-c2ccccc2)cc1
B. OC[C@H]1[C@@H](O)[C@H](O)[C@@H](O)CN1CCCCCOCc1ccc(-c2ccccc2)cc1C(F)(F)F
Prompt: Sorting ascending by IC50, which comes first: A or B ? Bench note: the answer is the label of the chosen record.
Completion: B
(B: 0.1 nM, A: 2 nM)
